biological target: Luciferin 4-monooxygenase (Photinus pyralis) (UniProt P08659); assay: Primary firefly luciferase (FLuc) qHTS assay for identification of artifact compounds. (AID 1845220); details: purified firefly luciferase, luminescence, 5 min; series mostly up to 54.1 µM; further: nearly all actives have a fitted effect of over 60% in size;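 on activity change, negative = inhibition: plate controls were DMSO vehicle for no effect and no enzyme for full effect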
Calls of active or inactive are those of the source. The call rests on the fitted dose curve; in most records, active means well fitted inhibition curve with a large enough effect; inconclusive means small, poorly fitted or top-dose-only effect; inactive means flat fitted curve, though single readings scatter.
measured-attribute: activity change, negative = inhibition

C#Cc1cccc(Nc2ncnc3cc(OCCOC)c(OCCOC)cc23)c1; inactive
COc1cc2nccc(Oc3ccc(NC(=O)NC4CC4)c(Cl)c3)c2cc1C(N)=O; inactive
C[C@@H]1CN(Cc2ccc(F)cc2)[C@@H](C)CN1C(=O)c1cc2c(C(=O)C(=O)N(C)C)cn(C)c2cc1Cl; inactive
CCN(CC)CCCC(C)Nc1ccnc2cc(Cl)ccc12 (centres undefined); -3.19% [at 11.6 µM] (inactive)
O=C1CCCC2=C1C(c1[nH]ncc1Cl)N=C(Nc1nc3ccccc3o1)N2 (centres undefined); inactive

I am curious: what activity change, negative = inhibition value has been reported for "S=C(NCc1ccc2c(c1)OCO2)N1CCN(c2ncnc3c2oc2ccccc23)CC1" ?
inactive

I am curious: what activity change, negative = inhibition value has been reported for "COc1ccc(CCN2CCN(CCCc3ccccc3)CC2)cc1OC" ?
inactive

I am curious: what activity change, negative = inhibition value has been reported for CCC(C)n1ncn(-c2ccc(N3CCN(c4ccc(OC[C@H]5CO[C@](Cn6cncn6)(c6ccc(Cl)cc6Cl)O5)cc4)CC3)cc2)c1=O (some centres undefined) ?
inactive

I am curious: what activity change, negative = inhibition value has been reported for COc1cccc2cc(-c3nc(C4CCC(C(=O)O)CC4)n4ncnc(N)c34)[nH]c12 (centres undefined) ?
inactive

----------
system: Zika virus NS2B-NS3 protease (unlinked); assay: Optimization of GU AMC qHTS for Zika virus inhibitors: Unlinked NS2B-NS3 protease assay (AID 1347151); conditions: recombinant ZIKV NS2B-NS3 protease, fluorogenic AMC substrate; series mostly up to 52.5 µM; further: nearly all actives have a fitted effect of over 80% in size
Inconclusive results are not listed. Active and inactive are the calls of the source. The call rests on the fitted dose curve; in most records, active means well fitted inhibition curve with a large enough effect; inconclusive means small, poorly fitted or top-dose-only effect; inactive means no such curve, though single readings can be large or run the other way.
Hi there, use one of these labels in your reply, thanks! active, inactive

Write down the call the test reported for this molecule. Item: "O=C(O)CCc1ccc(NCc2cccc(Oc3ccccc3)c2)cc1"
inactive

Write down the call the test reported for this molecule. Item: "CNC[C@H](O)c1cccc(O)c1"
inactive

Write down the call the test reported for this molecule. Item: CCn1cc(C(=O)O)c(=O)c2cc(F)c(N3CCNC(C)C3)c(F)c21 (stereo not drawn)
active

Write down the call the test reported for this molecule. Item: "NC(=O)c1cnccn1"
inactive

Write down the call the test reported for this molecule. Item: "CCCc1nn(C)c2c(=O)[nH]c(-c3cc(S(=O)(=O)N4CCN(C)CC4)ccc3OCC)nc12"
inactive

Write down the call the test reported for this molecule. Item: "Cc1cn[nH]c1"
inactive

Write down the call the test reported for this molecule. Item: OC(CCN1CCCCC1)(c1ccccc1)C1CC2C=CC1C2 (stereo not drawn)
inactive

Write down the call the test reported for this molecule. Item: "NS(=O)(=O)c1cc2c(cc1Cl)NC=NS2(=O)=O"
inactive

Write down the call the test reported for this molecule. Item: "N[C@@H]1CONC1=O"
inactive

Write down the call the test reported for this molecule. Item: NCCCC(N)(C(=O)O)C(F)F (stereo not drawn)
inactive

Write down the call the test reported for this molecule. Item: "CCc1cncnc1N1CCN(Cc2nc3ccc(C(F)(F)F)cc3[nH]2)CC1"
inactive

Write down the call the test reported for this molecule. Item: "N=c1nc(N2CCCCC2)cc(N)n1O"
inactive

Write down the call the test reported for this molecule. Item: "Cc1ccc(N(CC2=NCCN2)c2cccc(O)c2)cc1"
inactive

----------
target: Tyrosine-protein kinase Yes (Homo sapiens); assay: qHTS for small molecule inhibitors of Yes1 kinase: Primary Screen (AID 686947); details: Yes1 kinase biochemical qHTS inhibition; series mostly up to 76.9 µM; further: nearly all actives have a fitted effect of over 60% in size
Records with an inconclusive call do not appear. The source made the active and inactive calls. Calls follow the shape of the dose curve; as a rule, active = well fitted inhibition curve with a large enough effect; inconclusive = small, poorly fitted or top-dose-only effect; inactive = no such curve, though single readings can be large or run the other way.
Hi there, use one of these labels in your reply, thanks! active, inactive

Write down the call the test reported for this compound. Item: "Cn1cc(-c2ccc3nnc(C(F)(F)c4ccc5ncccc5c4)n3n2)cn1"
inactive

Write down the call the test reported for this compound. Item: "Cc1oncc1C(=O)Nc1ccc(C(F)(F)F)cc1"
inactive

Write down the call the test reported for this compound. Item: "CC[C@@H](C)[C@H](NC(=O)[C@H](CC1CCCCC1)NC(=O)c1ccno1)C(=O)N1CCC2(CCc3ccccc32)CC1"
inactive

Write down the call the test reported for this compound. Item: CCC(C)N(C)C(=O)c1cc2ccccc2c(-c2ccccc2Cl)n1 (stereo unspecified)
inactive

Write down the call the test reported for this compound. Item: "CNCc1ccc(-c2[nH]c3cc(F)cc4c3c2CCNC4=O)cc1"
active

Write down the call the test reported for this compound. Item: "Cn1c(=O)c(F)c(Nc2ccc(I)cc2F)c2c(=O)n(C[C@@H](O)CO)cnc21"
inactive

Write down the call the test reported for this compound. Item: "Cc1n[nH]c(C)c1Cc1sc2c(c1C(=O)N1C[C@H](O)CO1)c(=O)n(C)c(=O)n2CC(C)C"
inactive

Write down the call the test reported for this compound. Item: "Cc1cnc(Nc2ccc(OCCN3CCCC3)cc2)nc1Nc1cccc(S(=O)(=O)NC(C)(C)C)c1"
inactive

Write down the call the test reported for this compound. Item: Cc1c(C)c2c(c(C)c1O)CCC(C)(COc1ccc(CC3SC(=O)NC3=O)cc1)O2 (stereo unspecified)
inactive

Write down the call the test reported for this compound. Item: "CNC(=O)c1ccc(C)c(-n2c(C)cc(OCc3ccc(F)cc3F)c(Br)c2=O)c1"
inactive

Write down the call the test reported for this compound. Item: "Cn1cnc2c(F)c(Nc3ccc(Br)cc3Cl)c(C(=O)NOCCO)cc21"
inactive

Write down the call the test reported for this compound. Item: "O=c1[nH]c(-c2ccc(C(F)(F)F)cc2)nc2c1CSCC2"
inactive

Write down the call the test reported for this compound. Item: "COc1cc2nccc(Oc3ccc(NC(=O)NC4CC4)c(Cl)c3)c2cc1C(N)=O"
active

Write down the call the test reported for this compound. Item: "Cc1cc(-c2nnc3n2CCCCC3)c(C)n1-c1ccc(F)cc1"
active

Write down the call the test reported for this compound. Item: "CN[C@@H](C)C(=O)N[C@H]1CCCC[C@H]2CC[C@@H](C(=O)N[C@@H](c3ccccc3)c3cn(CCCCc4ccc(CCCCn5cc([C@@H](NC(=O)[C@@H]6CC[C@@H]7CCCC[C@H](NC(=O)[C@H](C)NC)C(=O)N76)c6ccccc6)nn5)cc4)nn3)N2C1=O"
inactive

Write down the call the test reported for this compound. Item: "Nc1nccc(-c2ccc3noc(-c4ccc(Cl)cc4)c3c2)n1"
inactive

Write down the call the test reported for this compound. Item: "CN(C)c1ccc(Nc2nc(N)n(C(=O)c3c(F)cccc3F)n2)cc1"
active

Write down the call the test reported for this compound. Item: "OCCn1cc(-c2cnc3nnn(Cc4ccc5ncccc5c4)c3n2)cn1"
inactive

Write down the call the test reported for this compound. Item: "COc1c(Cl)cc2c([nH]c3cnccc32)c1NC(=O)c1cccnc1C"
inactive

Write down the call the test reported for this compound. Item: "Nc1ncnc2nc(-c3ccc(N4CCOCC4)nc3)cc(-c3cccc(Br)c3)c12"
active

Write down the call the test reported for this compound. Item: "CC1(C)Cc2c(-c3ccccc3)c(-c3ccc(Cl)cc3)c(CC(=O)O)n2C1"
inactive

----------
test: Validation screen for small molecules that induce genotoxicity in human embryonic kidney (HEK293T) cells expressing luciferase-tagged ELG1 (AID 493106); settings: luminescence; series mostly up to 46.1 µM
Results filed as inconclusive are left out. Calls of active or inactive are those of the source. Calls follow the shape of the dose curve; as a rule, active = well fitted activation curve with a large enough effect; inconclusive = small, poorly fitted or top-dose-only effect; inactive = no such curve, though single readings can be large or run the other way.
Hi there, use one of these labels in your reply, thanks! y for active, n for inactive

Write down the call the test reported for this compound. Item: "Cn1cnc([N+](=O)[O-])c1Sc1ncnc2nc[nH]c12"
n

Write down the call the test reported for this compound. Item: "Clc1cccc(Cl)c1NC1=NCCN1"
n

Write down the call the test reported for this compound. Item: O=C1CCC(N2C(=O)c3ccccc3C2=O)C(=O)N1 (stereo not drawn)
n

Write down the call the test reported for this compound. Item: Oc1ccc(C2CNCCc3c2cc(O)c(O)c3Cl)cc1 (stereo not drawn)
n

Write down the call the test reported for this compound. Item: CCC(C)N(C)C(=O)c1cc2ccccc2c(-c2ccccc2Cl)n1 (stereo not drawn)
n

Write down the call the test reported for this compound. Item: "CCCCNc1cc(C(=O)O)cc(S(N)(=O)=O)c1Oc1ccccc1"
n

Write down the call the test reported for this compound. Item: "C1COC(NC(C2CC2)C2CC2)=N1"
n

Write down the call the test reported for this compound. Item: "NC(=O)c1cnccn1"
n

Write down the call the test reported for this compound. Item: "Cc1cn[nH]c1"
n

Write down the call the test reported for this compound. Item: "Nc1ncnc2nc(-c3ccc(N4CCOCC4)nc3)cc(-c3cccc(Br)c3)c12"
n

Write down the call the test reported for this compound. Item: "CCCC(CCC)C(=O)O"
n

Write down the call the test reported for this compound. Item: "NC[C@H](O)c1ccc(O)c(O)c1"
n

Write down the call the test reported for this compound. Item: "CCOC(=O)N1CCC(=C2c3ccc(Cl)cc3CCc3cccnc32)CC1"
n

Write down the call the test reported for this compound. Item: "CN1CCN(CCCN2c3ccccc3Sc3ccc(C(F)(F)F)cc32)CC1"
n

Write down the call the test reported for this compound. Item: "N=c1nc(N2CCCCC2)cc(N)n1O"
n

Write down the call the test reported for this compound. Item: "Cc1oncc1C(=O)Nc1ccc(C(F)(F)F)cc1"
y

Write down the call the test reported for this compound. Item: "Nc1ccc(S(=O)(=O)Nc2ccnn2-c2ccccc2)cc1"
n

Write down the call the test reported for this compound. Item: "O=NN(CCCl)C(=O)NCCCl"
n

Write down the call the test reported for this compound. Item: Cc1ccccc1C(OCCN(C)C)c1ccccc1 (stereo not drawn)
n

Write down the call the test reported for this compound. Item: "Cc1ccc(N(CC2=NCCN2)c2cccc(O)c2)cc1"
n

Write down the call the test reported for this compound. Item: CC(C[N+](C)(C)C)OC(N)=O (stereo not drawn)
n

Write down the call the test reported for this compound. Item: "N[C@@H]1CONC1=O"
n

Write down the call the test reported for this compound. Item: "Cc1cccc(-c2[nH]c(C(C)(C)C)nc2-c2ccc3nccnc3c2)n1"
n

Write down the call the test reported for this compound. Item: "NC(N)=NC(=O)c1nc(Cl)c(N)nc1N"
n

Write down the call the test reported for this compound. Item: "Cc1cnc(NC(=O)C2=C(O)c3ccccc3S(=O)(=O)N2C)s1"
n

Write down the call the test reported for this compound. Item: "O=c1[nH]cnc2[nH]ncc12"
n

Write down the call the test reported for this compound. Item: "CNC[C@H](O)c1cccc(O)c1"
n

Write down the call the test reported for this compound. Item: "CC(=O)Oc1ccccc1C(=O)O"
n
